The measured values listed here are drawn from the supplement of paper PMC9170038.

Test system: MS2 coat protein
Test: apparent KD of MS2 coat protein; designed switch direction (-1 OFF switch, 1 ON switch): 1; higher = weaker reporter binding
Details: input ligand: FMN 200 uM
Property Name: apparent KD of MS2 coat protein
Reply with the number, then its unit.

Answered cases to consult:
1) ACCCACGACGGAGGAUAUGGGCACUCGGCGGAAUAAACCGCCAUAACAUGAGGAUCACCCAUGUCCCAGAAGGCCGUCGCAAUC [Esdirece] (Eterna round: R96, puzzle: Same State NG 2); 109 nM
2) GCCGCGUUUCGCGCCUACAUGAGGAUCACCCAUGUUUGUAGGCAGGAUAUCGUUUGCUUUGCAAACGAGAAGGGCUGUUGUGGC [salish99_SSNG3_R04_012] (Eterna round: R96, puzzle: Same State NG 3); 29.9 nM
3) CCGUAGAUGGAAGGAUAUGGAGCCUUAUUGGCUCCAGAAGGUUCAAAACAUGAGGAUCACCCAUGUACGGCGGUCAAUAGACCG [Eli NG1ss - 82] (Eterna round: R96, puzzle: Same State NG 1); 111 nM
4) UGAACCGUCACAGGAUAUCAUGCGAAAAUUGCGUGAGAAGGGUGGAUGUUGUGUUCAAAGUUAUACAUGAGGAUCACCCAUGUU [SameState NG1 #46] (Eterna round: R96, puzzle: Same State NG 1); 29.8 nM

// input: 2 sequences below; output: apparent KD of MS2 coat protein for each
1. GCUGCAAGGGCAGGAUAUGGGUUCAGAGCGGAAGUGCGCUUUGAUACAUGAGGAUCACCCAUGUCCCAGAAGGGCCCAAACGGC [Beanti] (Eterna round: R96, puzzle: Same State NG 2)
2. CCCUUCGGCACAUGAGGAUCACCCAUGUUUUAGUGGAAGAGGUAGGAUAUGGCUGGGAGCAGAAGCCAGAAGGACCAAAUAAAU [Attiatan] (Eterna round: R96, puzzle: Same State NG 3)

Key:
["17.3 nM", "22.1 nM"]
